# credit: ChEMBL document CHEMBL3414548

Test system: HeLa
protocol.text: Cell cycle arrest in human HeLa cells assessed as accumulation at G2/M phase at 4 uM after 48 hrs by propidium iodide staining-based flow cytometric analysis (reference value: 31%)
Assay type: functional
Record form. Attribute: Activity. Fill in for each entry.
Give bare numbers, in %.

> print(dat)
                      smiles.representation  value.type  unit.string  experimental.result
1   Cc1nc2ccccc2c(=O)n1-c1ccccc1Cn1cc(S)nn1    Activity            %                   22
2  COc1cc2nc(C)n(-c3ccccc3Cn3cc(-c4ccc(C)cc4)nn3)c(=O)c2cc1OC    Activity            %                   22
3        O=c1c2ccccc2nc2n1Cc1cc3ccccc3nc1-2    Activity            %                   20
4  COc1cc2nc(C)n(-c3ccccc3Cn3cc(-c4ccccn4)nn3)c(=O)c2cc1OC    Activity            %                   22
5  COc1cc2nc(C)n(-c3ccccc3Cn3cc(S)nn3)c(=O)c2cc1OC    Activity            %                   23
6  COc1ccc2cc(-c3cn(Cc4ccccc4-n4c(C)nc5ccccc5c4=O)nn3)ccc2c1    Activity            %                   22

The reported HeLa Activity of `Cc1nc2ccccc2c(=O)n1-c1ccccc1Cn1cc(-c2ccccc2)nn1` is 18

* * *

protocol.text: Cytotoxicity against HEK cells after 72 hrs by MTT assay
Type: cell-based
test.conditions: Homo sapiens, HEK293, 72 h
What IC50 was measured for each of the following?
Answers are plain numbers, in µM.

Solved entries:
> print(dat)
                      smiles.representation  experimental.result
1  COc1cc2nc(C)n(-c3ccccc3Cn3ccnn3)c(=O)c2cc1OC                   98
2  COc1cc2nc(C)n(-c3ccccc3Cn3nnc4ncccc43)c(=O)c2cc1OC                   79
3  COc1cc2nc(C)n(-c3ccccc3Cn3cc(CO)nn3)c(=O)c2cc1OC                  110

// next entry
IC50 reported for this molecule `COc1cc2nc(C)n(-c3ccccc3Cn3cc(CCO)nn3)c(=O)c2cc1OC` : 124

* * *

protocol.text: Cytotoxicity against HEK cells after 72 hrs by MTT assay
Type: cell-based
test.conditions: Homo sapiens, HEK293, 72 h
I'd be grateful if you could share measured pIC50 for these entries.
Numbers only, as −log10 of the molar value.

Below, each entry is followed by its recorded pIC50 result.
> print(dat)
                      smiles.representation  experimental.result
1  COc1ccc2cc(-c3cn(Cc4ccccc4-n4c(C)nc5cc(OC)c(OC)cc5c4=O)nn3)ccc2c1                 4.17
2  COc1cc2nc(C)n(-c3ccccc3Cn3cc(-c4ccc(-c5ccccc5)cc4)nn3)c(=O)c2cc1OC                 4.15

What the record says about `COc1ccc(-c2cn(Cc3ccccc3-n3c(C)nc4cc(OC)c(OC)cc4c3=O)nn2)cc1` : pIC50 is 4.14

* * *

System: HEK293
protocol.text: Selectivity index, ratio of IC50 for HEK cells to IC50 for human K562 cells
Format: functional
value.type: Ratio IC50
One number for each entry.

Please review the following examples before continuing.
> print(dat)
                      smiles.representation  target.entity  value.type  experimental.result
1  COc1cc2nc(C)n(-c3ccccc3Cn3cc(-c4ccc(-c5ccccc5)cc4)nn3)c(=O)c2cc1OC         HEK293  Ratio IC50                 3.16
2  COc1cc2nc(C)n(-c3ccccc3Cn3cc(-c4ccc(C)cc4)nn3)c(=O)c2cc1OC         HEK293  Ratio IC50                 7.28
3  COc1ccc(-c2cn(Cc3ccccc3-n3c(C)nc4cc(OC)c(OC)cc4c3=O)nn2)cc1         HEK293  Ratio IC50                  3.2
4        O=c1c2ccccc2nc2n1Cc1cc3ccccc3nc1-2         HEK293  Ratio IC50                 2.01
5  COc1ccc(-c2cn(Cc3ccccc3-n3c(C)nc4ccccc4c3=O)nn2)cc1         HEK293  Ratio IC50                 5.17

Ratio IC50 reading for `Cc1nc2ccccc2c(=O)n1-c1ccccc1Cn1ccnn1` : 3.39
